Each recorded value in this set is attributed to ChEMBL document CHEMBL1949514.

tested on: HT-29; experiment: Cytotoxicity against human HT-29 cells after 96 hrs using tetracolor one; format: functional, cell-based; conditions: HT-29, 96 h
Quick list: IC50 per entry.
Report as a plain number; the unit nM is understood.

// below: answered compounds
- COc1c(Br)c2c(c(OC)c1OC)-c1ccc(OC)c(=O)cc1[C@@H](NC(C)=O)CC2: 6
- COc1c(F)c2c(c(OC)c1OC)-c1ccc(OC)c(=O)cc1[C@@H](NC(=O)OCc1ccc(NC(=O)[C@H](CCCCN)NC(=O)[C@H](Cc3ccccc3)NC(=O)OCc3ccccc3)cc1)CC2: 91
- COc1c(F)c2c(c(OC)c1OC)-c1ccc(OC)c(=O)cc1[C@@H](NC(C)=O)CC2: 7

Value lookup for IC50; key = COc1c(Cl)c2c(c(OC)c1OC)-c1ccc(OC)c(=O)cc1[C@@H](NC(C)=O)CC2 10

Now consider COc1c(F)c2c(c(OC)c1OC)-c1ccc(OC)c(=O)cc1[C@@H](N)CC2 . 80
